FYI, the data here is from patent US8173662B2.

Molecular target: Human PNP (Homo sapiens, UniProt P00491)
Sequence (P00491 whole entry): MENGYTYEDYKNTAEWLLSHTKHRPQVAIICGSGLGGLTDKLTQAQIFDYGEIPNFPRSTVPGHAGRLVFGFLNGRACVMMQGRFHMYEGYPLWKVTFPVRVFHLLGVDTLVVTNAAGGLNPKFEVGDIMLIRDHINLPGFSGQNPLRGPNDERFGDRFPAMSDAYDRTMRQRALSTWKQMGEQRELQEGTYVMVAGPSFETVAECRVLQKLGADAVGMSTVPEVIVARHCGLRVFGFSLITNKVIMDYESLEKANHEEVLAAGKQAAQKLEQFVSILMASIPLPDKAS
Experiment: Inhibition of human PNP (coupled xanthine oxidase assay)
Assay type: biochemical
Settings: equilibrium dissociation constant after slow-onset, tight binding inhibition
Method: Ki* is the biologically effective constant. The reaction involves the conversion of inosine (1 mM) and inorganic phosphate (50 mM, pH 7.4) to hypoxanthine and α-D-ribose 1-phosphate. Analysis by this method requires that the inhibitor concentration be present at least 10× the enzyme concentration. Enzyme was present at 1.6 pM. […] Inhibition constants (Ki or Ki*) were determined according to the equations v=(kcat)(A)/(Km·(1+I/Ki)+A) for Ki or v=(kcat)(A)/(Km·(1+I/Ki*)+A) for Ki*.
OBSERVED_PROPERTY: pKi
The meaning of pKi here: minus log10 of the concentration in molar units.

Form field pKi, entry `O=c1[nH]cnc2c(CN3C[C@H](CO)[C@@H](O)C3)c[nH]c12` : 10.80

====

Target: Human MTAP (Homo sapiens, UniProt Q13126)
Sequence (Q13126 1-283): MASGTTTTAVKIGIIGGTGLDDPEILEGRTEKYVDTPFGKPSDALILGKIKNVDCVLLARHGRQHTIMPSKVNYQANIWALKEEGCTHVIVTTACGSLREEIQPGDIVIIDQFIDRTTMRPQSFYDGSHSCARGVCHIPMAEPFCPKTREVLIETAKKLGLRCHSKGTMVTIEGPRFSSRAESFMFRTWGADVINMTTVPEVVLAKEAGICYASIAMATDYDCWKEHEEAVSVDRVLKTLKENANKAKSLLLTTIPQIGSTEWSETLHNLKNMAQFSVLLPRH
Assay: Inhibition of human MTAP (slow-onset inhibition, spectrophotometric assay)
Assay type: biochemical
Details: Ki*, equilibrium dissociation constant after slow-onset inhibition
OBSERVED_PROPERTY: Ki (pM)
Express the result in pM but write the number alone.

[[record]]
entry_smiles = "CSC[C@H]1CN(Cc2c[nH]c3c(N)ncnc23)C[C@@H]1O"
endpoint_value = 22


Form field Ki, entry `Nc1ncnc2c(CN3C[C@H](CSCc4ccccc4)[C@@H](O)C3)c[nH]c12` : 3

====

Measured pKi, listed per entry.
Biological target: UniProt:P9WP01
Sequence (P9WP01 whole entry): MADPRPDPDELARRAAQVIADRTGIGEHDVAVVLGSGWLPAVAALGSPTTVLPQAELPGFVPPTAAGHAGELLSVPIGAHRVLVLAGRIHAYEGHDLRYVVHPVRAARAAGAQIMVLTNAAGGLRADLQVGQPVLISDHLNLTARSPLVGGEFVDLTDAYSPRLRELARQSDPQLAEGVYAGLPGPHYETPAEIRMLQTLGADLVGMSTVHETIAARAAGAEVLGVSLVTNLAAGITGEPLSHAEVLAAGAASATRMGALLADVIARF
Experiment: Inhibition of Mycobacterium tuberculosis PNP
Assay type: biochemical
Conditions: initial inhibition constant; M. tuberculosis PNP
Structures can show the parent of a compound that is named as a salt.
The meaning of pKi here: minus log10 of the concentration in molar units.

A selection of reference data follows.
[[record]]
compound = "O=c1[nH]cnc2c(CN3CC(O)[C@@H](CO)C3)n[nH]c12 (stereo partly shown) [Compound 12]"
endpoint_value = 8.68

[[record]]
compound = "Nc1nc2c(CN3C[C@H](CO)[C@@H](O)C3)c[nH]c2c(=O)[nH]1 [Compound 61]"
endpoint_value = 9.27

[[record]]
compound = "O=c1[nH]cnc2c(CN3C[C@H](CO)[C@@H](O)C3)c[nH]c12 [Compound 8]"
endpoint_value = 8.89


Now for the compound whose pKi we want.
Form field pKi, entry O=c1[nH]cnc2c(CN3CC(O)C(O)[C@H]3CO)c[nH]c12 (stereo partly shown) [Compound 41, hydrochloride] : 8.15

====

Target: Human MTAP (Homo sapiens, UniProt Q13126)
Test: Inhibition of human MTAP (slow-onset inhibition, spectrophotometric assay)
Format: biochemical
Conditions: Ki, initial inhibition constant
Description: Ki* is the biologically effective constant. Continuous spectrophotometric assays as well as discontinuous assays were used to characterize the inhibitors of the invention and in vivo inhibition of MTAP and/or MTAN. […] The reactions were stopped by the addition of 1 μL of concentrated HCl or 60% perchloric acid. […] Following development, adenine spots were located by ultraviolet light absorbance, excised and counted for the content of tritium. […]
OBSERVED_PROPERTY: Ki (pM)
Express the result in pM but write the number alone.

A selection of reference data follows.
[[record]]
entry_smiles = "Nc1ncnc2c(CN3C[C@H](CSc4ccc(Cl)cc4)[C@@H](O)C3)c[nH]c12"
endpoint_value = 46

[[record]]
entry_smiles = "Nc1ncnc2c(CN3C[C@H](CSCc4ccccc4)[C@@H](O)C3)c[nH]c12"
endpoint_value = 280


Now for the compound whose Ki we want.
Form field Ki, entry `CSC[C@H]1CN(Cc2c[nH]c3c(N)ncnc23)C[C@@H]1O` : 870
